Provide the recorded %Inh for the entries that follow.
# Test system: JAK3(JH1domain-catalytic)
# measurement context: concentration: 1 μM, replicates: in singlicate; n = 1;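 also: KINOMEscan kinase panel screen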
Numbers only, in %.

Cn1cncc1-c1cc2c(Nc3ccc(OCc4ccccc4)cc3)ncnc2cn1 ... 0
O=C1NC(=O)C(c2ccc(Cl)cc2)=C1Nc1cccc(Cl)c1 ... 0
CCCCc1nn2ncccc2c1-c1ccnc(NC2CC2)n1 ... 0
COc1cccc(C2=C(Nc3cc(Cl)c(O)c(Cl)c3)C(=O)NC2=O)c1 ... 93.7
Cc1ccc(NC(=O)Nc2ccc(Cl)cc2)cc1-c1ccc(C(=O)Nc2ccncc2)cc1 ... 0

I'm hoping you can list %Inh for every molecule here, please.
1. Fc1ccc(-c2nn3cccc(F)c3c2-c2ccncc2)cc1
2. CS(=O)(=O)Cc1ccc(Nc2nccc(-c3c(-c4cccc(NC(=O)C5CCCCC5)c4)nn4ncccc34)n2)cc1

result:
[0, 43]

I'm hoping you can list %Inh for every molecule here, please.
1. O=C1NC(=O)C(c2ccc(Cl)cc2)=C1Nc1ccc(O)cc1
2. CC(=O)c1cccc(NC(=O)NC2CCN(c3ccnc(Nc4ccc(F)cc4)n3)C2)c1 (stereo not drawn)
3. Cl.Cl.Cl.N#Cc1ccc(CCNc2nccc(-c3cccc(CN4CCNCC4)c3)n2)cc1
4. Nc1ncnc2occ(-c3ccc4c(c3)CCN4C(=O)Cc3cc(F)ccc3F)c12

result:
1. 0
2. 0
3. 0
4. 0

query: Which %Inh reading was recorded for the molecule Cn1cncc1C(=O)NC1CCN(c2ccnc(Nc3ccc(F)cc3)n2)C1 (stereo not drawn) ?
result: 0

* * *

Provide the recorded %Inh for the entries that follow.
# System: BMPR2
# measurement context: concentration: 1 μM, replicates: in singlicate; n = 1
One number for each entry, in %.

In the examples that follow, each entry is paired with its recorded %Inh.
Fc1ccc(-c2nn3cccc(F)c3c2-c2ccncc2)cc1 ... 0
Cc1ccc(-c2nc(Nc3ccncc3)c3ccccc3n2)s1 ... 0
Cc1ccc(NC(=O)Nc2ccccc2F)cc1-c1ccc(C(=O)Nc2ccncc2)cc1 ... 0

I'm hoping you can list %Inh for every compound here, please.
1. CC(C)c1cc(-c2ccc3c(N)n[nH]c3c2)nc(N)n1
2. CCc1ccc(-c2ccc3c(c2)-c2n[nH]cc2S(=O)(=O)N3C)cc1
3. O=c1cc(N2CCOCC2)nc2n(Cc3cccc(Cl)c3Cl)c3ccccc3n12

result:
1: 4; 2: 0; 3: 0

I'm hoping you can list %Inh for every compound here, please.
1. COc1cc2ncnc(Nc3cccc(Br)c3)c2cc1OC.Cl
2. Cn1cnc2c(N)ncnc21
3. O=C1NC(=O)C(c2ccc(Cl)cc2)=C1Nc1ccc(O)cc1
4. CC(=O)c1c(C)c2cnc(Nc3ccc(N4CCNCC4)cn3)nc2n(C2CCCC2)c1=O
5. Cc1ccc(NC(=O)c2ccc(Cl)cc2)cc1-c1ccc(C(=O)Nc2ccncc2)cc1
6. c1ccc(-c2ccnc3[nH]ccc23)cc1

result:
[0, 0, 0, 0, 0, 47]

* * *

Provide the recorded %Inh for the entries that follow.
# Tested on: CAMK4
# measurement context: concentration: 1 μM, replicates: in singlicate; n = 1
Answers are plain numbers, in %.

In the examples that follow, each entry is paired with its recorded %Inh.
Nc1ncnc2occ(-c3ccc4c(c3)CCN4C(=O)Cc3cc(F)ccc3F)c12 [GSK2645446] ... 0
Cc1ccc(NC(=O)Nc2ccc(Cl)cc2)cc1-c1ccc(C(=O)Nc2ccncc2)cc1 [GSK1398472] ... 0
Cc1ccc(-c2nc(Nc3ccncc3)c3ccccc3n2)s1 [GSK189015] ... 26
Nc1nccc(-c2c(-c3ccc(F)cc3)ncn2C2CCN(Cc3ccccc3)CC2)n1 [SB-219980] ... 13
CC(C)c1ccc(O)cc1Nc1ccnc2ccc(C(F)(F)F)cc12 [GW482059] ... 14
COc1cc2ncnc(Nc3cccc(Br)c3)c2cc1OC.Cl [GI230329] ... 0
COc1ccc(Nc2nccc(N3CCC(NC(=O)C(C)c4ccc(Cl)cc4)C3)n2)cc1 (stereo not shown) [GSK1379735] ... 0
Cn1cnc2c(N)ncnc21 [SKF-97623] ... 7

I'm hoping you can list %Inh for every compound here, please.
1. CN1c2ccc(-c3ccc(C(N)=O)cc3)cc2-c2[nH]ncc2S1(=O)=O
2. COc1cccc(CNC(=O)NC2CCN(c3ccnc(Nc4ccc(F)cc4)n3)C2)c1 (stereo not shown) [GSK1379723]
3. O=C(Nc1n[nH]c2cc(-c3ccsc3)ccc12)C1CC1 [SB-732932]
4. CCn1c(-c2ccccc2)nc2cnccc21 [SB-733416]
5. COc1cccc(C2=C(Nc3cc(Cl)c(O)c(Cl)c3)C(=O)NC2=O)c1 [SB-390767]
6. CC(=O)c1cccc(NC(=O)NC2CCN(c3ccnc(Nc4ccc(F)cc4)n3)C2)c1 (stereo not shown) [GSK1379710]
7. CSc1ccc(-c2nc3n(c2-c2ccncc2)CCC3)cc1 [SKF-105561]

result:
1. 16
2. 0
3. 0
4. 13
5. 0
6. 0
7. 30

I'm hoping you can list %Inh for every compound here, please.
1. CNc1cc(-c2ccc3c(N)n[nH]c3c2)nc(N)n1 [GSK2224810]
2. CS(=O)(=O)Cc1ccc(Nc2nccc(-c3c(-c4cccc(NC(=O)C5CCCCC5)c4)nn4ncccc34)n2)cc1 [GSK350559]
3. Fc1ccc(-c2nn3cccc(F)c3c2-c2ccncc2)cc1 [GW475620]
4. Cc1ccc(NC(=O)Nc2ccccc2)cc1-c1ccc(C(=O)Nc2ccncc2)cc1 [GSK1398471]

result:
1. 0
2. 0
3. 19
4. 0

* * *

Provide the recorded %Inh for the entries that follow.
# System: ROS1
# measurement context: concentration: 1 μM, replicates: in singlicate; n = 1
Numbers only, in %.

CS(=O)(=O)Cc1ccc(Nc2nccc(-c3c(-c4cccc(NC(=O)C5CCCCC5)c4)nn4ncccc34)n2)cc1 ... 21
CC(=O)c1c(C)c2cnc(Nc3ccn(C)n3)nc2n(C2CCCC2)c1=O ... 4
CS(=O)(=O)CCNCc1nc(-c2ccc3ncnc(Nc4ccc5c(cnn5Cc5ccccc5)c4)c3c2)cs1.Cl.Cl ... 0
COc1ccc(Nc2nccc(N3CCC(NC(=O)C(C)c4ccc(Cl)cc4)CC3)n2)cc1 (stereo not drawn) ... 40

I'm hoping you can list %Inh for every molecule here, please.
1. O=C(Nc1n[nH]c2cc(-c3ccsc3)ccc12)C1CC1
2. Cn1cnc2c(N)ncnc21
3. Nc1ncnc2occ(-c3ccc4c(c3)CCN4C(=O)Cc3cc(F)ccc3F)c12
4. Cc1c(Cn2c(C)c(C)n3c(=O)cc(N4CCOCC4)nc23)cccc1C(F)(F)F

result:
1. 0
2. 0
3. 2
4. 19

query: Which %Inh reading was recorded for the molecule `CCn1c(-c2c(N)noc2C)nc2cnccc21` ?
result: 0

* * *

# Tested on: HCK
# measurement context: concentration: 1 μM, replicates: in singlicate; n = 1
measured quantity: %Inh (%)
Give bare numbers, in %.

In the examples that follow, each entry is paired with its recorded %Inh.
COc1nccc(-c2c(-c3ccc(F)cc3)ncn2CCCN2CCOCC2)n1 [SB-282852] ... 0
CS(=O)(=O)CCNCc1nc(-c2ccc3ncnc(Nc4ccc5c(cnn5Cc5ccccc5)c4)c3c2)cs1.Cl.Cl [GW569716] ... 0
CS(=O)(=O)Cc1ccc(Nc2nccc(-c3c(-c4cccc(NC(=O)C5CCCCC5)c4)nn4ncccc34)n2)cc1 [GSK350559] ... 1
COC(=O)C(NC(=O)NC1CCN(c2ccnc(Nc3ccc(F)cc3)n2)C1)c1ccccc1 (stereo not drawn) [GSK1379712] ... 0
CNc1cc(-c2ccc3c(N)n[nH]c3c2)nc(N)n1 [GSK2224810] ... 0
Cl.Cl.Cl.N#Cc1ccc(CCNc2nccc(-c3cccc(CN4CCNCC4)c3)n2)cc1 [GSK2137462] ... 0
Nc1cccc(-c2ccc3c(N)n[nH]c3c2)n1 [GSK2192730] ... 0
Cc1ccc(NC(=O)Nc2ccccc2)cc1-c1ccc(C(=O)Nc2ccncc2)cc1 [GSK1398471] ... 0

I'm hoping you can list %Inh for every molecule here, please.
1. CC(=O)c1c(C)c2cnc(Nc3ccn(C)n3)nc2n(C2CCCC2)c1=O
2. COc1ccc(CSc2nnc(-c3ccc4nccn4c3)o2)cc1C(F)(F)F
3. COc1ccc(-c2coc3ccc(-c4nnc(C)o4)cc23)cc1

result:
1: 29; 2: 0; 3: 0

I'm hoping you can list %Inh for every molecule here, please.
1. Cc1cccc2c(-c3ccncn3)c(-c3ccc(F)cc3)nn12 [GW515532]
2. COC(=O)c1cccc(NC(=O)NC2CCN(c3ccnc(Nc4ccc(OC)cc4)n3)C2)c1 (stereo not drawn) [GSK1379746]

result:
[0, 0]

I'm hoping you can list %Inh for every molecule here, please.
1. Fc1ccc(-c2nc[nH]c2-c2ccncc2)cc1 [SB-217360]
2. COc1ccc(Nc2nccc(NCCNC(=O)Nc3cc(C)ccc3C)n2)cc1 [GSK1379899]
3. Cc1ccc(NC(=O)Nc2ccc(Cl)cc2)cc1-c1ccc(C(=O)Nc2ccncc2)cc1 [GSK1398472]
4. COC(=O)c1cccc(NC(=O)NC2CCN(c3ccnc(Nc4ccc(F)cc4)n3)C2)c1 (stereo not drawn) [GSK1379725]

result:
20
78
0
0

query: Which %Inh reading was recorded for the molecule CNc1nc(-c2ccc3c(N)n[nH]c3c2)cc(N2C[C@@H](C(=O)NC3CCCCC3)OC[C@H]2C)n1 [GSK2375584] ?
result: 0
